Measured values drawn from ChEMBL document CHEMBL2057173 for this set.

Quick list: Emax per entry.
molecular target: Glucose-dependent insulinotropic receptor (Homo sapiens) (UniProt Q8TDV5); test: Agonist activity at human GPR119 receptor expressed in CHO-K1 cells assessed as cAMP accumulation after 30 mins by HTRF assay relative to AR231453; type: functional, cell-based
Sequence (Q8TDV5 whole entry): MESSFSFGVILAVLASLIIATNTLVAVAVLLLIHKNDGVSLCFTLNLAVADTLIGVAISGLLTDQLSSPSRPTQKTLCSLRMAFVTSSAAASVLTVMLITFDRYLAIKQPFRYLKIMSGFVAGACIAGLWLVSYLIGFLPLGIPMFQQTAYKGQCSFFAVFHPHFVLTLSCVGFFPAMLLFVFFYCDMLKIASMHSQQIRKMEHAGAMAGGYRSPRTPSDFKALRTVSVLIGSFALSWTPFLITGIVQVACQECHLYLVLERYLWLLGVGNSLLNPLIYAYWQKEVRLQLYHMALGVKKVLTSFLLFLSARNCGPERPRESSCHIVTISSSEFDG
Give the number; % is assumed, so skip it.

# annotated cases, reported Emax shown
> print(dat)
                                 cpd.smiles                              assay.target  test.result
1  CC(C)c1nnc(N2CCC(CCCNc3ccc4c(c3)OCC4=O)CC2)o1  Glucose-dependent insulinotropic receptor (Homo sapiens) (UniProt Q8TDV5)           85
2  COC(=O)c1cnc(N2CCC(CCCNc3ccc4c(c3)OCC4=O)CC2)nc1  Glucose-dependent insulinotropic receptor (Homo sapiens) (UniProt Q8TDV5)           85
3  CC(C)(C)OC(=O)N1CCC(CCCNc2ccc3c(c2)C(=O)CO3)CC1  Glucose-dependent insulinotropic receptor (Homo sapiens) (UniProt Q8TDV5)           95
4  CC(C)(C)OC(=O)N1CCC(CCCNc2ccc3c(c2)CCS3(=O)=O)CC1  Glucose-dependent insulinotropic receptor (Homo sapiens) (UniProt Q8TDV5)           80
5  CC(C)(C)OC(=O)N1CCC(CCCNc2ccc3c(c2)CNC3=O)CC1  Glucose-dependent insulinotropic receptor (Homo sapiens) (UniProt Q8TDV5)           91

# Emax lookup, item "CC(C)(C)OC(=O)N1CCC(CCCNc2ccc3c(c2)OCCS3(=O)=O)CC1" 81

Please answer likewise for "CC(C)c1nsc(N2CCC(CCCNc3ccc4c(c3)OCC4=O)CC2)n1" 10

Please answer likewise for "CC(C)(C)OC(=O)N1CCC(CCCNc2ccc3c(c2)S(=O)(=O)CC3)CC1" 25

Please answer likewise for "CC(C)c1noc(N2CCC(CCCNc3ccc4c(c3)C(=O)CC4)CC2)n1" 110

Please answer likewise for "CN(CCNc1ccc2c(c1)CCS2(=O)=O)C1CCN(C(=O)OC(C)(C)C)CC1" 10

Please answer likewise for "CC(C)(C)OC(=O)N1CCC(CCCNc2ccc3c(c2)C(=O)CCO3)CC1" 100

Please answer likewise for "CCc1cnc(N2CCC(CCCNc3ccc4c(c3)OCC4=O)CC2)nc1" 115

Please answer likewise for "COc1cnc(N2CCC(CCCNc3ccc4c(c3)OCC4=O)CC2)nc1" 101

Please answer likewise for "CC(C)(C)OC(=O)N1CCC(CCCNc2ccc3c(c2)OCS3(=O)=O)CC1" 93

Please answer likewise for "CC(C)(C)OC(=O)N1CCC(CCCNc2ccc3c(c2)OCC3=O)CC1" 94

Please answer likewise for "CC(C)(C)OC(=O)N1CCC(CCCCCNc2ccc3c(c2)CCS3(=O)=O)CC1" 65

Please answer likewise for "CC(C)(C)OC(=O)N1CCC(CCCNc2ccc3c(c2)CCCCC3=O)CC1" 38

Please answer likewise for "CCc1cnc(N2CCC(CCCNc3ccc4c(c3)C(=O)CC4)CC2)nc1" 113
